These measurements were taken from the supplement of paper PMC11451515.

Test system: SEM cells
Experiment: cell viability relative to DMSO control; higher = less cytotoxic
Details: RPMI 5 mM glucose + 10% FBS; 48 h; 5.12 µM
Would you mind telling me the reported cell viability of each entry?
Give the number; % is assumed, so skip it.

Looking up O=C(O)C1=NC(C(=O)O)CC(/C=C/N2c3cc(O)c(OC4OC(CO)C(O)C(O)C4O)cc3CC2C(=O)O)=C1 (centres undefined) , I found its cell viability recorded as 102

Looking up C[C@]12CC[C@@H]3c4ccc(O)cc4C[C@@H](CCCCCCCCC[S+]([O-])CCCC(F)(F)C(F)(F)F)[C@H]3[C@@H]1CC[C@@H]2O (some centres undefined) , I found its cell viability recorded as 80.8

Looking up `O=C(Nc1c(Cl)cncc1Cl)c1ccc(OC(F)F)c(OCC2CC2)c1` , I found its cell viability recorded as 93.5

Looking up `C[S+](=O)([O-])N1CCc2c(-c3cnc(N)nc3)nc(N3CCOCC3)nc21` , I found its cell viability recorded as 38.9

----------
System: NOMO1
Assay: cell viability relative to DMSO control; higher = less cytotoxic
Conditions: RPMI 5 mM glucose + 10% FBS; 48 h; 0.569 µM
observedProperty: cell viability (%)
Give the number; % is assumed, so skip it.

Looking up `C\C1=C(\C=C(C#N)/C(=O)N1)C2=C[N]3C=CN=C3C=C2` , I found its cell viability recorded as 94.5

Looking up `CN1CCCN=C1/C=C/c1cccs1.O=C(O)c1cc2ccccc2c(Cc2c(O)c(C(=O)O)cc3ccccc23)c1O` , I found its cell viability recorded as 117

Looking up `COc1ccc(C(C)=O)c(O)c1` , I found its cell viability recorded as 112

Looking up `CCn1c(-c2nonc2N)nc2cnc(Oc3cccc(NC(=O)c4ccc(OCCN5CCOCC5)cc4)c3)cc21` , I found its cell viability recorded as 87.4

Looking up `CC(C)(C)c1[nH]cnc1/C=c1\[nH]c(=O)/c(=C/c2ccccc2)[nH]c1=O` , I found its cell viability recorded as 24.9

Looking up `O=C(Nc1ccccc1-c1cn2c(CN3CCNCC3)csc2n1)c1cnc2ccccc2n1` , I found its cell viability recorded as 70.3

Looking up `CNC(=O)c1ccc(N2C(=S)N(c3ccc(C#N)c(C(F)(F)F)c3)C(=O)C23CCC3)cc1F` , I found its cell viability recorded as 92

Looking up `C/C=C(/C)C(=O)O[C@H]1C(C)=C[C@]23C(=O)[C@@H](C=C(CO)[C@@H](O)[C@]12O)[C@H]1[C@@H](C[C@H]3C)C1(C)C` , I found its cell viability recorded as 67.8

----------
System: NOMO1
Assay: cell viability relative to DMSO control; higher = less cytotoxic
Conditions: HPLM + 10% dialyzed FBS; 48 h; 0.19 µM
observedProperty: cell viability (%)
Give the number; % is assumed, so skip it.

Looking up CC(N)C12CC3CC(CC(C3)C1)C2 (centres undefined) , I found its cell viability recorded as 104

Looking up `CNC[C@H](O)c1ccc(O)c(O)c1` , I found its cell viability recorded as 102

Looking up `O=C(O[C@H]1C[C@H]2CC[C@@H](C1)[N+]21CCCC1)C(O)(c1ccccc1)c1ccccc1.[Cl-]` , I found its cell viability recorded as 116

Looking up `CC1(C)O[C@@H]2C[C@H]3[C@@H]4CCC5=CC(=O)C=C[C@]5(C)[C@H]4[C@@H](O)C[C@]3(C)[C@]2(C(=O)CO)O1` , I found its cell viability recorded as 108

Looking up `CNc1nccc(-c2cccnc2Oc2cc(C(=O)Nc3cccc(C(F)(F)F)c3)ccc2C)n1` , I found its cell viability recorded as 147

Looking up `O=C(Nc1ccccc1-c1cn2c(CN3CCNCC3)csc2n1)c1cnc2ccccc2n1` , I found its cell viability recorded as 92

Looking up `C\C1=C(\C=C(C#N)/C(=O)N1)C2=C[N]3C=CN=C3C=C2` , I found its cell viability recorded as 79.9

Looking up Nc1nc(N)c2nc(CNc3ccc(C(=O)NC(CCC(=O)O)C(=O)O)cc3)cnc2n1 (centres undefined) , I found its cell viability recorded as 70.4

Looking up `OC1=CC2=C(C(=C1)O)C(=O)\C=C(/O2)C3=CC=CC=C3` , I found its cell viability recorded as 116
